- MEASURED TARGET: T1, Cynomolgus CD3 on Cyno CD3+ Jurkat cells (cynomolgus, UniProt Q95LI5 22-198)
- T1 construct: whole, on cells; CD3 on cells; also called cCD3
- T1 sequence (Q95LI5 22-198): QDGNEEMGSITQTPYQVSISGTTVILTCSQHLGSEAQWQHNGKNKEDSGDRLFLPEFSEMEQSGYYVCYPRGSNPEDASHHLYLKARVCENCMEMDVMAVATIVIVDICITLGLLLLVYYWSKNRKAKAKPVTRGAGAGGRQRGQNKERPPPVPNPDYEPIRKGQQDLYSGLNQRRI
- PROTOCOL NOTES: cell binding, cyno CD3+ Jurkat cells
ASSAY READOUT: Cell Binding Fold Over Background (FOB)

Provide measured Cell Binding Fold Over Background (FOB) value, entry: ADI-46357 (antibody, V domains shown, also called Ab30) VH: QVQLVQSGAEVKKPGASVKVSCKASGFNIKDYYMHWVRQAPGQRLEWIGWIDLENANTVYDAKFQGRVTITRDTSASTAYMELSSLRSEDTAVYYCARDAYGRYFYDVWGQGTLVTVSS VL: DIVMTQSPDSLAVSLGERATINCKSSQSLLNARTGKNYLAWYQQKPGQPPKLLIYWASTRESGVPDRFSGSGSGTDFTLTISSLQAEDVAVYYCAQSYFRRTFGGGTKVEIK
20 FOB
